- ASSAY TEXT: Plasma pharmacokinetics of pevonedistat (LC/MS/MS, noncompartmental analysis)
- Assay type: in vivo, human
- CONDITION PARAMETERS: human, plasma, iv, cycle 1 day 1; dose level 1, pevonedistat 20 mg/m^2 IV (belinostat 800 mg/m^2); n=2, actual values
RECORDED METRIC: AUC(0-inf) (µM·h)

> print(dat)
                                   compound  unit.descriptor  numeric.result
1  NS(=O)(=O)OC[C@@H]1C[C@@H](n2ccc3c(N[C@H]4CCc5ccccc54)ncnc32)C[C@@H]1O [Pevonedistat]             µM·h            2.28

---

- ASSAY TEXT: Plasma pharmacokinetics of belinostat and belinostat glucuronide (LC/MS/MS, noncompartmental analysis)
- CONDITION PARAMETERS: human, plasma, iv, Cl (systemic clearance), cycle 1 day 1; dose level 5, belinostat 1000 mg/m^2 IV (pevonedistat 50 mg/m^2); mean±SD, n=4
RECORDED METRIC: clearance (mL/min)

> print(dat)
                               query.smiles  unit.descriptor  numeric.result
1  O=C(/C=C/c1cccc(S(=O)(=O)Nc2ccccc2)c1)NO           mL/min            2300

---

- ASSAY TEXT: Plasma pharmacokinetics of belinostat and belinostat glucuronide (LC/MS/MS, noncompartmental analysis)
- CONDITION PARAMETERS: read-out: preEOI Cmax (peak plasma concentration); cycle 1 day 1; dose level 1, belinostat 800 mg/m^2 IV (pevonedistat 20 mg/m^2); n=2, actual values
RECORDED METRIC: Cmax (µM)

> print(dat)
                               query.smiles  numeric.result
1  O=C(/C=C/c1cccc(S(=O)(=O)Nc2ccccc2)c1)NO             144

---

- ASSAY TEXT: Plasma pharmacokinetics of belinostat and belinostat glucuronide (LC/MS/MS, noncompartmental analysis)
- CONDITION PARAMETERS: human, plasma, iv, preEOI Cmax (peak plasma concentration), cycle 1 day 1; dose level 4, belinostat 1000 mg/m^2 IV (pevonedistat 37 mg/m^2); mean±SD, n=4
RECORDED METRIC: Cmax

> print(dat)
                                   molecule  recorded.metric   result
1  O=C(/C=C/c1cccc(S(=O)(=O)Nc2ccccc2)c1)NO [Belinostat]             Cmax  96.5 µM

---

- ASSAY TEXT: Plasma pharmacokinetics of belinostat and belinostat glucuronide (LC/MS/MS, noncompartmental analysis)
- CONDITION PARAMETERS: human, plasma, iv, 800 mg/m2, AUCINF, cycle 1 day 1; belinostat 800 mg/m^2 IV, all 800 mg/m^2 patients (dose levels 1-3); mean±SD, n=7
RECORDED METRIC: AUC(0-inf) (µM·h)

> print(dat)
                               query.smiles  numeric.result
1  O=C(/C=C/c1cccc(S(=O)(=O)Nc2ccccc2)c1)NO            67.5

---

- ASSAY TEXT: Plasma pharmacokinetics of pevonedistat (LC/MS/MS, noncompartmental analysis)
- Format: in vivo, human
- CONDITION PARAMETERS: human, plasma, iv, cycle 1 day 1; dose level 4, pevonedistat 37 mg/m^2 IV (belinostat 1000 mg/m^2); mean±SD, n=3
RECORDED METRIC: AUC(0-inf) (µM·h)

> print(dat)
                                   compound  numeric.result
1  NS(=O)(=O)OC[C@@H]1C[C@@H](n2ccc3c(N[C@H]4CCc5ccccc54)ncnc32)C[C@@H]1O [Pevonedistat]             4.6

Reference source for all entries: paper PMC11742280
